Give measured pIC50 for each item. Keep answers brief.
Note: pIC50 values are expressed as the negative base-10 logarithm of concentration in M.

Request: pIC50, test system Serine/threonine-protein kinase pim-1 (Homo sapiens), entry "COc1cc2c(-c3cnc(-c4ccc[nH]4)o3)c[nH]c2cc1Br"
6.70

Request: pIC50, test system Serine/threonine-protein kinase pim-1 (Homo sapiens), entry "COc1cc(Br)cc2[nH]cc(-c3cnc(-c4ccc[nH]4)o3)c12"
6.05

* * *

target_or_test_system: Serine/threonine-protein kinase RIO1 (Homo sapiens, UniProt Q9BRS2)
Sequence (Q9BRS2 whole entry): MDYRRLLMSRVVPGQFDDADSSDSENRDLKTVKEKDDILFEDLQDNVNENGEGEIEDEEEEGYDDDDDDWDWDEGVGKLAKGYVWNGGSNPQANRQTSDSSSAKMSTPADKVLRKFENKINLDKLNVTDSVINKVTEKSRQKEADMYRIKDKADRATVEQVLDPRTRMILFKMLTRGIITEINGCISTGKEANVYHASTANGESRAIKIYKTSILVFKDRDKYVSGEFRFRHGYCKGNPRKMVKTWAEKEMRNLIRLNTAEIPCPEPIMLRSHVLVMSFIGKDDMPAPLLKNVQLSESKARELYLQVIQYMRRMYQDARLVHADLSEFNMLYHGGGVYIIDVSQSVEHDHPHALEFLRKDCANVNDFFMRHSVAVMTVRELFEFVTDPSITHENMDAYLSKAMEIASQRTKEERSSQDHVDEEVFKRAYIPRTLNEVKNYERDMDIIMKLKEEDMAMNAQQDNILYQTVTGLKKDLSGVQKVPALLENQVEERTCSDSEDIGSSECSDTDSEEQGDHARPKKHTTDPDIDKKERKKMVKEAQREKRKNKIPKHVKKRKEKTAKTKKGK
assay_text: Binding affinity to wild-type human full length RIOK1 (M1 to K568 residues) expressed in bacterial expression system by active-site directed competition binding assay based Kinomescan method
measured_metric: pKd
Note: pKd values are expressed as the negative base-10 logarithm of concentration in M.

Request: pKd, test system Serine/threonine-protein kinase RIO1 (Homo sapiens, UniProt Q9BRS2), entry "COc1cc2c(-c3cnc(-c4ccc[nH]4)o3)c[nH]c2cc1Br"
5.54
